# Tested on: Mayo39 (Glioblastoma cell line)
# ASSAY_SUMMARY: Mayo39 cell viability in vitro
# Assay type: cell-based
# SETUP_CONDITIONS: with 5 uM Spironolactone, read-out: LP-184 IC50 [mean value, nM] in combination with 5 uM Spironolactone
READOUT: IC50 (nM)

MOLECULE | STUDY_TARGET | MEASUREMENT_UNITS | RECORDED_RESULT
CC1=C(CN(O)C(N)=O)C2=C(C)C3(CC3)[C@@](C)(O)C(=O)C2=C1 [LP-184, (−)-hydroxyureamethyl acylfulvene] | Mayo39 (Glioblastoma cell line) | nM | 94.3

###

# Tested on: U87 (glioblastoma cell line)
# ASSAY_SUMMARY: U87 cell growth / survival / viability in vitro
# Type: cell-based
# SETUP_CONDITIONS: Homo sapiens, U-87 MG, LP-184 alone, read-out: LP-184 alone IC50 [mean value
READOUT: IC50 (nM)

MOLECULE | READOUT | RECORDED_RESULT
CC1=C(CN(O)C(N)=O)C2=C(C)C3(CC3)[C@@](C)(O)C(=O)C2=C1 [LP-184, (−)-hydroxyureamethyl acylfulvene] | IC50 | 250
